Assay protocol: in vivo
Measurement context: female, rat
Readout label: NOAEL at 7 days (mg/kg)
Give the value in mg/kg but do not write mg/kg after it.

Asked: Output measured NOAEL at 7 days for this item: CC(C)n1cc(C(=O)Nc2ccc(Oc3ccnc4[nH]nc(N[C@H](C)CO)c34)c(F)c2)c(=O)n(-c2ccc(F)cc2)c1=O
Given back: 200
